src = patent US20240358849A1

molecular target: T1, human FAP expressed on cells (HEK 293T-hFAP-E5; ExpiCHO-hFAP) (human, UniProt Q12884 1-760); test: flow cytometry, 1 µg/mL antibody
T1 construct: hFAP expression vector Sino Biologics HG10464-UT; also called hFAP expressing cells
PARAMETER: binding result

>>> result("antibody D003 (antibody, V domains shown) VH: EVQLVESGGGLVQPGGSLRLSCAASGFTFYTYIMSWVRQAPGKGLEWVSSIGPSYGDTIYADSVKGRFTISRDNSKNTLYLQMNSLRAEDTAVYYCARTISYSQYAYGYSFDYWGQGTLVTVSS VL: DIQMTQSPSSLSASVGDRVTITCRASQSISSYLNWYQQKPGKAPKLLIYAASSLQSGVPSRFSGSGSGTDFTLTISSLQPEDFATYYCQQTRSYLPTFGQGTKVEIKR")
"binds"
